- study-target: JAK3 (recombinant human kinase domain; h-jak3(810-1124)) (Homo sapiens, UniProt P52333)
- Construct: h-jak3(810- 1124)-sf9-c; made in house; host or cells: Sf9 insect cells
- Sequence (P52333 810-1124): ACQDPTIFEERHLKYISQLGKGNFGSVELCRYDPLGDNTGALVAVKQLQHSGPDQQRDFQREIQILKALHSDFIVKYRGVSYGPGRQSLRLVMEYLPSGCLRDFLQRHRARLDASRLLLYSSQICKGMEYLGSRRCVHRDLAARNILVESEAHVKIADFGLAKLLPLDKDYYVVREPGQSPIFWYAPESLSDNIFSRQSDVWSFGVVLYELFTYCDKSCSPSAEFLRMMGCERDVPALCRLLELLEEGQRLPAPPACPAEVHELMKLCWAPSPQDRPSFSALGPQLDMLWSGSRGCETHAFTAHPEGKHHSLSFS
- test-details: Determination of IC50 of Janus Kinase (JAK) inhibition: JAK3, radioactive end-point assay with 33P-ATP
- Type: biochemical
- test-settings: JAK3 kinase domain; ATP 1.5 uM, peptide 50 uM, 20 minutes, room temperature, 10% DMSO; read-out: Ic50 h-jak3(810-1124)-sf9-c:no additive
property-measured: IC50 (nM)

# example entries with known answers
> print(dat)
                                   compound                              study.target  property.measured  observed.measurement
1  C[C@@H](NC(=O)c1c[nH]c2ncc(Oc3ccc(F)cc3F)nc12)C1CCCCC1  JAK3 (recombinant human kinase domain; h-jak3(810-1124)) (Homo sapiens, UniProt P52333)               IC50                   442
2   CN(C)c1cnc2[nH]cc(C(=O)NCC(C)(C)CO)c2n1  JAK3 (recombinant human kinase domain; h-jak3(810-1124)) (Homo sapiens, UniProt P52333)               IC50                  34.9
3  C[C@H](NC(=O)c1c[nH]c2ncc(-c3cn(-c4cccc(C(F)(F)F)c4)cn3)nc12)C(C)(C)C  JAK3 (recombinant human kinase domain; h-jak3(810-1124)) (Homo sapiens, UniProt P52333)               IC50                  13.1
4  CC(NC(=O)c1c[nH]c2ncc(C3CC3)nc12)C1CCCC1 (stereo not shown)  JAK3 (recombinant human kinase domain; h-jak3(810-1124)) (Homo sapiens, UniProt P52333)               IC50                  9.99
5  Cc1ccc(-c2cnc3[nH]cc(C(=O)N[C@@H](C)C(C)(C)O)c3n2)cn1  JAK3 (recombinant human kinase domain; h-jak3(810-1124)) (Homo sapiens, UniProt P52333)               IC50                    45

[A] CC(NC(=O)c1ccc(-c2cnc3[nH]cc(C(=O)N[C@@H](C)C(C)(C)C)c3n2)s1)c1cccnc1 (stereo partly shown)
[B] C[C@H](NC(=O)c1c[nH]c2ncc(-c3cn(-c4cccc(Cl)c4)cn3)nc12)C(C)(C)C
[C] CC(C)NC(=O)c1c[nH]c2ncc(Oc3ccc4c(c3)[C@H](NC(N)=O)CC4)nc12
[D] C[C@H](Cc1ccccc1)NC(=O)c1ccc(-c2cnc3[nH]cc(C(=O)N[C@@H](C)C(C)(C)C)c3n2)s1
Exercise: List by increasing IC50. Your task in answering is to list the labels in the requested order.
Key: A, D, B, C
(A: 0.23 nM, D: 0.58 nM, B: 4.61 nM, C: 143 nM)

[P] C[C@H](NC(=O)c1c[nH]c2ncc(-c3ccc(C(=O)NCc4ccncc4)s3)nc12)C(C)(C)C
[Q] C[C@H](NC(=O)c1c[nH]c2ncc(-c3ccc(C(F)(F)F)cc3)nc12)C(C)(C)C
Exercise: Could you kindly indicate whether P or Q has the higher IC50 value? State your choice using its label.
Key: Q

[P] C[C@H](CO)NC(=O)c1c[nH]c2ncc(C3CC3)nc12
[Q] C[C@H](NC(=O)c1c[nH]c2ncc(-c3ccc(C(N)=O)s3)nc12)C(C)(C)C
Exercise: Could you kindly indicate whether P or Q has the higher IC50 value? State your choice using its label.
Key: P

[a] CCC(=O)N[C@@H]1CCc2ccc(Oc3cnc4[nH]cc(C(=O)NC(C)C)c4n3)cc21
[b] C[C@H](NC(=O)c1c[nH]c2ncc(-c3ccc(C(=O)NCc4ccccc4)s3)nc12)C(C)(C)C
Exercise: For the pair a and b , which entry has the numerically smaller recorded IC50? State your choice using its label.
Key: b
(b: 0.5 nM, a: 125 nM)
